Reference source: patent US20250084039A1

- Tested on: K562
- TEST_PROTOCOL: IC50 proliferation assay (Alamar Blue, 72 h)
- Type: cell-based
- MEASUREMENT_PARAMETERS: Homo sapiens, K562; Table 18; read-out: Inhibition of proliferation of K562 cell lines (CML)
MEASURED_METRIC: IC50

# count of solved cases: 3
Cc1ccc(C(=O)NCc2ccc(OCCN(C)C)cc2)cc1C#Cc1cc(N)nc2ccccc12
913 nM
Cc1ccc(C(=O)Nc2ccc(CN3CCN(C)CC3)c(C(F)(F)F)c2)cc1C#Cc1c(N)nc(C)c2ccccc12
8.8 nM
Cc1ccc(C(=O)Nc2ccc(CN3CCN(C)CC3)c(C(F)(F)F)c2)cc1C#Cc1cnc(N)c2ccccc12
6.1 nM

What IC50 appears in the records for this molecule with K562? "Cc1ccc(C(=O)Nc2ccc(CN3CCN(C)CC3)c(C(F)(F)F)c2)cc1C#Cc1c(N)ncc2ccc(Cl)cc12"
3.5 nM

So what IC50 did "CCN(CC)CCNC(=O)c1ccc(C)c(C#Cc2c(N)ncc3ccc(Cl)cc23)c1" get with K562?
25.7 nM

For K562, provide IC50 of "COc1cc2nc(N)nc(C#Cc3cc(C(=O)NCc4ccc(OCCN(C)C)cc4)ccc3C)c2cc1OC" please.
1480 nM

Find the measured IC50: item "Cc1ccc(C(=O)Nc2ccc(CN3CCN(C)CC3)c(C(F)(F)F)c2)cc1C#Cc1cc(N)nc2ccccc12" , target or system K562.
1100 nM

GET /values?readout=IC50&system=K562&item= "Cc1ccc(C(=O)Nc2ccc(CN3CCN(C)CC3)c(C(F)(F)F)c2)cc1C#Cc1cnc(N)c2ncccc12"
1.8 nM

What is its IC50 for K562? Entry: "Cc1ccc(C(=O)Nc2ccc(CN3CCN(C)CC3)c(C(F)(F)F)c2)cc1C#Cc1c(N)ncc2ccccc12"
2.4 nM

Item "Cc1ccc(C(=O)Nc2ccc(CN3CCN(C)CC3)c(C(F)(F)F)c2)cc1C#Cc1c(N)ncc2cc(Cl)c(Cl)cc12" with K562 - IC50?
7.3 nM

Please provide the recorded IC50 for "COc1cc2nc(N)nc(C#Cc3cc(C(=O)Nc4ccc(CN5CCN(C)CC5)c(C(F)(F)F)c4)ccc3C)c2cc1OC" , tested on K562.
44 nM

What IC50 appears in the records for this molecule with K562? "Cc1ccc(C(=O)Nc2ccc(CN3CCN(C)CC3)c(C(F)(F)F)c2)cc1C#Cc1c(N)ncc2c(Cl)cccc12"
5.2 nM

Lab note: need IC50 with K562 for entry "Cc1ccc(C(=O)NCCN2CCCCC2)cc1C#Cc1c(N)ncc2ccc(Cl)cc12" , please look it up.
7 nM
